Test system: P12-Ichikawa
Assay: cell viability relative to DMSO control; higher = less cytotoxic
Conditions: RPMI 5 mM glucose + 10% FBS; 48 h; 0.19 µM

compound	cell viability
C[C@]1(O)CC(C1)C2=NC(=C3[N]2C=CN=C3N)C4=CC5=C(C=C4)C=CC(=N5)C6=CC=CC=C6 (centres undefined)	89.6%
C[C@H](CCC(=O)O)[C@H]1CC[C@H]2[C@@H]3[C@H](O)C[C@@H]4C[C@H](O)CC[C@]4(C)[C@H]3CC[C@]12C	90.1%
COc1ccc(/C=C\c2cc(OC)c(OC)c(OC)c2)cc1NC(=O)[C@H](N)CO	13.8%
C/C1=C2/[N]3[Co+]456([OH])<-[N]7=C1[C@@H](CCC(N)=O)C(C)(C)/C7=C/C1=[N]->4C(=C(/C)C4=[N]->5[C@@](C)([C@H]3[C@H](CC(N)=O)[C@@]2(C)CCC(=O)NC[C@@H](C)OP(=O)([O-])O[C@H]2[C@@H](O)[C@@H](n3c[n]->6c5cc(C)c(C)cc53)O[C@@H]2CO)[C@@](C)(CC(N)=O)[C@@H]4CCC(N)=O)/[C@@](C)(CC(N)=O)[C@@H]1CCC(N)=O	88.3%

* * *

Tested on: NOMO1
Test: cell viability relative to DMSO control; higher = less cytotoxic
Details: RPMI 5 mM glucose + 10% FBS; 48 h; 1.71 µM
value_type: cell viability (%)

compound	recorded_number
O=C(/C=C/c1ccc(/C=C/C(=O)Nc2ccc(C3=NCCN3)cc2)cc1)Nc1ccc(C2=NCCN2)cc1	115
CNC(=O)c1ccc2c(c1)NC(=O)/C2=C(\Nc1cccc(CN(C)C)c1)c1ccccc1	87.2
Nc1ccc(C(=O)Nc2cccc(-c3nc(N4CCOCC4)c4oc5ncccc5c4n3)c2)cn1	108
O=C(O)c1ccc(O)c2ncc(N3CCOCC3)cc12	86.2
NC1=NC(=O)N2CC12 (stereo not drawn)	82.7
Nc1n[nH]c2nnc(-c3c(-c4ccccc4)nn4ccccc34)cc12	59
Cc1cc(Nc2ncc3c(n2)N(C)C(=O)N(c2cc(NC(=O)c4cccc(C(F)(F)F)c4)ccc2C)C3)n(C)n1	70.6
C[C@@H]1CC[C@@]2(CC[C@]3(C)\C(=C/C[C@@H]4[C@@]5(C)CC[C@H](O)C(C)(C)[C@@H]5CC[C@@]34C)[C@@H]2[C@H]1C)C(O)=O	104
CC1(C)CC\C2=C(/O1)C3=C(C=CC=C3)C(=O)C2=O	107
Nc1nc(F)nc2c1ncn2[C@@H]1O[C@H](COP(=O)(O)O)[C@@H](O)[C@@H]1O	118
C=CC(=O)Nc1cc2c(Nc3ccc(F)c(Cl)c3)ncnc2cc1C#CC(C)(C)N1CCN(C)CC1	95
Oc1ccc(OCc2ccccc2)cc1	104
C[C@]12CCC3c4ccc(O)cc4CCC3C1CCC2=O (stereo partly drawn)	90.8
O=C(O)CCCCCC(=O)NN=C1CCCC1	103
CN1CCc2c(c3ccccc3n2Cc2ccc(C(=O)NO)cc2)C1	76.5
CN1C(=O)c2sccc2N(C)c2nc(Nc3ccc([S+](N)(=O)[O-])cc3)ncc21	92.9
Nc1ccc(C(=O)c2cc3c(ccc4ccccc43)[nH]2)cc1	109
c1cc(-c2cnn3cc(-c4ccc(OCCN5CCCCC5)cc4)cnc23)ccn1	80.9
COc1ccccc1[C@H](c1cccc2ccccc12)[C@@](C)(C#N)C(=O)N1CCC(c2cccc(C(F)(F)F)c2)CC1	107
CCCCCNC(=N)N/N=C/c1c[nH]c2ccc(OC)cc12	129
CCCOc1ccc(C(=O)OCCN(CC)CC)cc1N	111
CCc1ccc(OCc2ccccc2C(=O)Nc2ccc3nc(C)cc(N)c3c2)cc1	113
CCCCc1ccc2[nH]c(NC(=O)OC)nc2c1	24.4
CO[C@H]1CCC(O[C@H]2C[C@H]([C@]3(C)CC[C@]4(C[C@H](O)[C@@H](C)[C@@H]([C@@H](C)/C=C(\C)C(=O)[C@H](C)C[C@H](C)C(=O)[O-])O4)O3)O[C@]3(O[C@@H]([C@H]4O[C@@](O)(CO)[C@H](C)C[C@@H]4C)C[C@@H]3C)[C@@H]2C)O[C@@H]1C (stereo partly drawn)	118
C[C@]12CC[C@H]3[C@@H](CC(=C)\C4=C\C(=O)\C=C/[C@]34C)[C@@H]1CCC2=O	90.6
CCNC(=O)Nc1ccc(Oc2ncnc(N)c2/C=N/OC)cc1Cl	121
Cc1c(N)nc([C@H](CC(N)=O)NC[C@@H](N)C(N)=O)nc1C(=O)N[C@H](C(=O)N[C@@H](C)[C@H](O)[C@@H](C)C(=O)N[C@@H](C(=O)NCCc1nc(-c2nc(C(=O)NCCC[S+](C)C)cs2)cs1)[C@@H](C)O)C(O[C@H]1O[C@H](CO)[C@H](O)[C@@H](O)[C@H]1O[C@H]1O[C@H](CO)[C@@H](O)[C@H](OC(N)=O)[C@@H]1O)c1c[nH]cn1 (stereo partly drawn)	71.9
CC(C)C1CCC(C(=O)N[C@H](Cc2ccccc2)C(=O)O)CC1 (stereo partly drawn)	80.7
N[S+](=O)([O-])c1ccc(Nc2nc(OCC3CCCCC3)c3[nH]cnc3n2)cc1	28.4
CN(C)CCCC1(c2ccc(F)cc2)OCc2cc(C#N)ccc21 (stereo not drawn)	106
NCCCC(N)(C(=O)O)C(F)F (stereo not drawn)	120
Oc1cc(-c2nc(-c3ccccc3)[nH]c2-c2ccncc2)ccc1Cl	102
O=C1NC(=O)/C(=C/c2ccc3nccnc3c2)S1	100

* * *

Tested on: P12-Ichikawa
Assay: cell viability relative to DMSO control; higher = less cytotoxic
Conditions: RPMI 5 mM glucose + 10% FBS; 48 h; 5.12 µM
List of cell viability values.
value_type: cell viability (%)

> print(dat)
                                 cpd.smiles      value.type  recorded.number
1   OC1=CC=C(C=C1)C/2=C/C3=C(OC2)C=C(O)C=C3  cell viability             24.3
2  NC(=O)c1cccc(-c2cc(Nc3ccc(OC(F)(F)F)cc3)ncn2)c1  cell viability             91.5
3  CN1C(=O)/C(=C(NC2=CC=C(I)C=C2F)\C3=C1\N=C/N(C[C@@H](O)CO)C3=O)F  cell viability               68
4  Nc1n[nH]c2nnc(-c3c(-c4ccccc4)nn4ccccc34)cc12  cell viability             95.3
5             Cc1ccc2nc(NCCN)c3ncc(C)n3c2c1  cell viability              102
6  CC1(C)CC\C2=C(/O1)C3=C(C=CC=C3)C(=O)C2=O  cell viability              105
7  CN(C)c1nc(Cc2ccc(NC(=O)c3ccc(C(F)(F)F)cc3)cc2)nc(N(C)C)c1CC(=O)O  cell viability              100

* * *

Overview of reported cell viability across a group of compounds:
Test system: SEM cells
Test: cell viability relative to DMSO control; higher = less cytotoxic
Details: HPLM + 10% dialyzed FBS; 48 h; 0.0211 µM

compound	cell viability (%)
COc1cc2nc(N3CCN(C(=O)C4COc5ccccc5O4)CC3)nc(N)c2cc1OC (stereo not given)	126
Nc1nc(F)nc2c1ncn2[C@@H]1O[C@H](COP(=O)(O)O)[C@@H](O)[C@@H]1O	113
CC/C=C\C[C@H]1C(=O)CC[C@@H]1CC(=O)OC	130
O=C(O)c1cc(O)c2c(c1)C(=O)c1cccc(O)c1C2=O	108
CC(=O)N(C)C1(c2ccccc2)CCN(CCC[C@]2(c3ccc(Cl)c(Cl)c3)CCCN(C(=O)c3ccccc3)C2)CC1	116
CN1CC[C@H]([C@@H](O)C1)C2=C(O)C=C(O)C3=C2O\C(=C/C3=O)C4=CC=CC=C4Cl	132
CNC[C@H](O)[C@@H](O)[C@H](O)[C@H](O)CO	106
C/C1=C2/[N]3[Co+]456([OH])<-[N]7=C1[C@@H](CCC(N)=O)C(C)(C)/C7=C/C1=[N]->4C(=C(/C)C4=[N]->5[C@@](C)([C@H]3[C@H](CC(N)=O)[C@@]2(C)CCC(=O)NC[C@@H](C)OP(=O)([O-])O[C@H]2[C@@H](O)[C@@H](n3c[n]->6c5cc(C)c(C)cc53)O[C@@H]2CO)[C@@](C)(CC(N)=O)[C@@H]4CCC(N)=O)/[C@@](C)(CC(N)=O)[C@@H]1CCC(N)=O	98.2
COc1ccc(CCC(=O)c2c(O)cc(O[C@@H]3O[C@H](CO)[C@@H](O)[C@H](O)[C@H]3O[C@@H]3O[C@@H](C)[C@H](O)[C@@H](O)[C@H]3O)cc2O)cc1O	128
Cc1cc(Nc2ncc3c(n2)N(C)C(=O)N(c2cc(NC(=O)c4cccc(C(F)(F)F)c4)ccc2C)C3)n(C)n1	88.2
Cc1cn2cc(C(=O)N(C)CCO)cc(N[C@@H]3CCOc4cccc(C)c43)c2n1	101
CC(C)C1CCC(C(=O)N[C@H](Cc2ccccc2)C(=O)O)CC1 (stereo not given in full)	108
CCCOc1ccc(C(=O)OCCN(CC)CC)cc1N	105
CC(C)c1onc(-c2c(Cl)cccc2Cl)c1COc1ccc(/C=C/c2cccc(C(=O)O)c2)c(Cl)c1	120
CCN(CC)CCNC(=O)c1c(C)[nH]c(/C=C2\C(=O)Nc3ccc(F)cc32)c1C	53
